- Test system: M109 lung carcinoma
- method description: Mice M109 Model (In-Vivo), ip M109 lung carcinoma, median survival
- Set-up: species or system mouse
- conditions used: ip M109, Balb/c×DBA/2 F1 mice, ip injections days 5 and 8 post-implant, at optimal dose
Assignment: determine reported Maximum % T/C (ratio of median survival times treated/control x 100) for the given molecules.
Number in %, nothing else.

Maximum % T/C (ratio of median survival times treated/control x 100) measured on CC(=O)O[C@H]1C(=O)[C@]2(C)C[C@@H](S(C)(=O)=O)[C@H]3OC[C@@]3(OC(C)=O)[C@H]2[C@H](OC(=O)c2ccccc2)[C@]2(O)C[C@H](OC(=O)[C@H](O)[C@@H](NC(=O)c3ccccc3)c3ccccc3)C(C)=C1C2(C)C = 147

Noted for COC(=O)CS[C@@H]1C[C@@]2(C)C(=O)[C@H](OC(C)=O)C3=C(C)[C@@H](OC(=O)[C@H](O)[C@@H](NC(=O)c4ccccc4)c4ccccc4)C[C@@](O)([C@@H](OC(=O)c4ccccc4)[C@@H]2[C@]2(OC(C)=O)CO[C@H]12)C3(C)C : its Maximum % T/C (ratio of median survival times treated/control x 100) reads 103

Form field Maximum % T/C (ratio of median survival times treated/control x 100), entry CC(=O)O[C@H]1C(=O)[C@]2(C)C[C@@H](SC#N)[C@H]3OC[C@@]3(OC(C)=O)[C@H]2[C@H](OC(=O)c2ccccc2)[C@]2(O)C[C@H](OC(=O)[C@H](O)[C@@H](NC(=O)c3ccccc3)c3ccccc3)C(C)=C1C2(C)C : 194

Given item CC(=O)O[C@H]1C(=O)[C@]2(C)C[C@@H](Sc3cccs3)[C@H]3OC[C@@]3(OC(C)=O)[C@H]2[C@H](OC(=O)c2ccccc2)[C@]2(O)C[C@H](OC(=O)[C@H](O)[C@@H](NC(=O)c3ccccc3)c3ccccc3)C(C)=C1C2(C)C , the value recorded as its Maximum % T/C (ratio of median survival times treated/control x 100) is 148

Per the record, CC(=O)CS[C@@H]1C[C@@]2(C)C(=O)[C@H](OC(C)=O)C3=C(C)[C@@H](OC(=O)[C@H](O)[C@@H](NC(=O)c4ccccc4)c4ccccc4)C[C@@](O)([C@@H](OC(=O)c4ccccc4)[C@@H]2[C@]2(OC(C)=O)CO[C@H]12)C3(C)C has Maximum % T/C (ratio of median survival times treated/control x 100) of 168

// sample CC(=O)O[C@H]1C(=O)[C@]2(C)C[C@@H]([S+](C)[O-])[C@H]3OC[C@@]3(OC(C)=O)[C@H]2[C@H](OC(=O)c2ccccc2)[C@]2(O)C[C@H](OC(=O)[C@H](O)[C@@H](NC(=O)c3ccccc3)c3ccccc3)C(C)=C1C2(C)C (single isomer, unassigned) [Compound 19, 7-deoxy-6β-methyl sulfoxide-paclitaxel] , its Maximum % T/C (ratio of median survival times treated/control x 100) was 169

Looking up C=CCOC(=O)CS[C@@H]1C[C@@]2(C)C(=O)[C@H](OC(C)=O)C3=C(C)[C@@H](OC(=O)[C@H](O)[C@@H](NC(=O)c4ccccc4)c4ccccc4)C[C@@](O)([C@@H](OC(=O)c4ccccc4)[C@@H]2[C@]2(OC(C)=O)CO[C@H]12)C3(C)C , I found its Maximum % T/C (ratio of median survival times treated/control x 100) recorded as 106

So, CC(=O)O[C@H]1C(=O)[C@]2(C)C[C@@H](SCC(=O)O)[C@H]3OC[C@@]3(OC(C)=O)[C@H]2[C@H](OC(=O)c2ccccc2)[C@]2(O)C[C@H](OC(=O)[C@H](O)[C@@H](NC(=O)c3ccccc3)c3ccccc3)C(C)=C1C2(C)C ? Its Maximum % T/C (ratio of median survival times treated/control x 100) was 107

Briefly, Maximum % T/C (ratio of median survival times treated/control x 100) measured for CC(=O)O[C@H]1C(=O)[C@]2(C)C[C@@H](Sc3ccccc3)[C@H]3OC[C@@]3(OC(C)=O)[C@H]2[C@H](OC(=O)c2ccccc2)[C@]2(O)C[C@H](OC(=O)[C@H](O)[C@@H](NC(=O)c3ccccc3)c3ccccc3)C(C)=C1C2(C)C : 114
